- experiment: Pharmacokinetic parameter half-life was determined at 10 mg/kg po dose in rats
- Type: ADME, organism-based
- Design: dose 10 mg/kg, route oral
- condition_summary: rat, in vivo

{"molecule": "C[S+]([O-])c1ccc(-c2cc(-c3ccncc3)c(-c3ccc(F)cc3)[nH]2)cc1 (stereo unspecified)", "half-life (h)": 2.59}

###

- experiment: T max was determined at 10 mg/kg po dose in rats
- Format: ADME, organism-based
- Parameters: dose 10 mg/kg, route oral
- condition_summary: rat, in vivo

{"compound": "C[S+]([O-])c1ccc(-c2cc(-c3ccncc3)c(-c3ccc(F)cc3)[nH]2)cc1 (stereo unspecified)", "measurement_units": "h", "Tmax": 1.05}

###

- Tested on: Rattus norvegicus
- experiment: Pharmacokinetic parameter plasma clearance was determined at 2 mg/kg i.v. dose in rats
- Format: ADME, organism-based
- Parameters: dose 2 mg/kg, route intravenous
- condition_summary: in vivo, iv
measured_quantity: Clp (mL/min/kg)

{"compound": "C[S+]([O-])c1ccc(-c2cc(-c3ccncc3)c(-c3ccc(F)cc3)[nH]2)cc1 (stereo unspecified)", "measurement_units": "mL/min/kg", "obs_value": 42.6}

###

- Tested on: Rattus norvegicus
- experiment: Pharmacokinetic parameter plasma clearance was determined at 5 mg/kg i.v. dose in rats
- Assay type: ADME, organism-based
- Parameters: dose 5 mg/kg, route intravenous
- condition_summary: in vivo, iv
measured_quantity: Clp (mL/min/kg)

{"compound": "C[S+]([O-])c1ccc(-c2cc(-c3ccncc3)c(-c3ccc(F)cc3)[nH]2)cc1 (stereo unspecified)", "measurement_units": "mL/min/kg", "obs_value": 22.5}

###

Examples of compounds with documented AUC follow.
- experiment: Pharmacokinetic parameter area under curve was determined at 2 mg/kg i.v. dose in rats
- Type: ADME, organism-based
- Design: dose 2 mg/kg, route intravenous
- condition_summary: rat, in vivo, iv

{"compound": "CS(=O)(=O)c1ccc(-c2cc(-c3ccncc3)c(-c3ccc(F)cc3)[nH]2)cc1", "AUC (µM·h)": 6.18}
{"compound": "C[S+]([O-])c1ccc(-c2cc(-c3ccncc3)c(-c3ccc(F)cc3)[nH]2)cc1 (configuration not stated)", "AUC (µM·h)": 2.1}

###

Catalogue of compounds with associated pIC50
- measured_target: Mitogen-activated protein kinase 14 (Rattus norvegicus)
- experiment: Inhibitory potency evaluated against rat p38 kinase
pIC50: −log10 of the molar value.

{"compound": "Fc1ccc(-c2[nH]c(-c3ccccc3)cc2-c2ccncc2)c(F)c1", "pIC50": 7.54}
{"compound": "Fc1cccc(-c2cc(-c3ccncc3)c(-c3ccccc3)[nH]2)c1", "pIC50": 7.38}
{"compound": "Fc1ccc(-c2cc(-c3ccncc3)c(-c3ccc(F)cc3)[nH]2)cc1", "pIC50": 7.22}
{"compound": "c1ccc(-c2cc(-c3ccncc3)c(-c3cccs3)[nH]2)cc1", "pIC50": 6.92}
{"compound": "Fc1ccc(-c2cc(-c3ccc(Cl)cc3)[nH]c2-c2ccncc2)cc1", "pIC50": 5.85}
{"compound": "Cc1cc(-c2cc(-c3ccc([S+](C)[O-])cc3)[nH]c2-c2ccc(F)cc2)ccn1 (stereo not given)", "pIC50": 8.22}
{"compound": "CSc1ccc(-c2[nH]c(-c3ccccc3)cc2-c2ccncc2)cc1", "pIC50": 6.16}
{"compound": "Fc1ccc(-c2[nH]c(-c3ccc(Br)cc3)cc2-c2ccncc2)cc1", "pIC50": 7.00}
{"compound": "c1ccc(-c2cc(-c3ccncc3)c(-c3ccccn3)[nH]2)cc1", "pIC50": 5.64}
{"compound": "Fc1ccc(-c2oc(-c3ccc(Cl)cc3)cc2-c2ccncc2)cc1", "pIC50": 6.20}

###

- experiment: Pharmacokinetic parameter area under curve was determined at 3 mg/kg po dose in rats
- Assay type: ADME, organism-based
- Parameters: dose 3 mg/kg, route oral
- condition_summary: rat, in vivo

{"molecule": "CS(=O)(=O)c1ccc(-c2cc(-c3ccncc3)c(-c3ccc(F)cc3)[nH]2)cc1", "measurement_units": "µM·h", "AUC": 5.8}
{"molecule": "C[S+]([O-])c1ccc(-c2cc(-c3ccncc3)c(-c3ccc(F)cc3)[nH]2)cc1 (configuration not stated)", "measurement_units": "µM·h", "AUC": 0.81}

###

- experiment: Pharmacokinetic parameter Vdss was determined at 5 mg/kg i.v. dose in rats
- Assay type: ADME, organism-based
- Set-up: dose 5 mg/kg, route intravenous
- condition_summary: rat, in vivo, iv, read-out: Vdss

{"molecule": "C[S+]([O-])c1ccc(-c2cc(-c3ccncc3)c(-c3ccc(F)cc3)[nH]2)cc1 (stereo unspecified)", "Vd": "1.81 L/kg"}

###

- experiment: Pharmacokinetic parameter Vdss was determined at 2 mg/kg i.v. dose in rats
- Format: ADME, organism-based
- Set-up: dose 2 mg/kg, route intravenous
- condition_summary: rat, in vivo, iv, read-out: Vdss
measured_quantity: Vd (L/kg)

{"molecule": "C[S+]([O-])c1ccc(-c2cc(-c3ccncc3)c(-c3ccc(F)cc3)[nH]2)cc1 (stereo unspecified)", "obs_value": 2.23}

###

- experiment: C max was determined at 3 mg/kg po dose in rats
- Type: ADME, organism-based
- Design: dose 3 mg/kg, route oral
- condition_summary: rat, in vivo
measured_quantity: Cmax (nM)

{"molecule": "C[S+]([O-])c1ccc(-c2cc(-c3ccncc3)c(-c3ccc(F)cc3)[nH]2)cc1 (stereo unspecified)", "measured_quantity": "Cmax", "measurement_units": "nM", "obs_value": 310}

###

Catalogue of molecules with associated IC50
- measured_target: Mitogen-activated protein kinase 11 (Homo sapiens, UniProt Q15759)
- Sequence (Q15759 whole entry): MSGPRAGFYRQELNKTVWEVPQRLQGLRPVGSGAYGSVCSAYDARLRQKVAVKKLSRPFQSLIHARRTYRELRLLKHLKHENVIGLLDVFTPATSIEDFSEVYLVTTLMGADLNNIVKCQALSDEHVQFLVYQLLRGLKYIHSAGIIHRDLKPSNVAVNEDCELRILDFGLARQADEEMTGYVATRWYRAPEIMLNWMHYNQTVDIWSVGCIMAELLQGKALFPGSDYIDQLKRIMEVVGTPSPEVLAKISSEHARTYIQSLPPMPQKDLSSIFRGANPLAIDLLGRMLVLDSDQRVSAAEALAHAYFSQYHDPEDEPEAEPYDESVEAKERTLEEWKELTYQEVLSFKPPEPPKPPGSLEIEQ
- experiment: Inhibition of Mitogen-activated protein kinase p38 beta
measured_quantity: IC50 (nM)

{"molecule": "C[S+]([O-])c1ccc(-c2cc(-c3ccncc3)c(-c3ccc(F)cc3)[nH]2)cc1 (configuration not stated)", "obs_value": 8.1}
{"molecule": "CS(=O)(=O)c1ccc(-c2cc(-c3ccncc3)c(-c3ccc(F)cc3)[nH]2)cc1", "obs_value": 10}

###

- measured_target: Mitogen-activated protein kinase 14 (Rattus norvegicus)
- experiment: Inhibitory potency evaluated against rat p38 kinase
pIC50: −log10 of the molar value.
measured_quantity: pIC50

{"given_smiles": "c1ccc(-c2cc(-c3ccncc3)c(-c3ccccc3)[nH]2)cc1", "obs_value": 7.77}
{"given_smiles": "Clc1ccc(-c2[nH]c(-c3ccccc3)cc2-c2ccncc2)cc1Cl", "obs_value": 7.52}
{"given_smiles": "N#Cc1cccc(-c2[nH]c(-c3ccccc3)cc2-c2ccncc2)c1", "obs_value": 7.28}
{"given_smiles": "COc1ccc(OC)c(-c2cc(-c3ccncc3)c(-c3ccccc3)[nH]2)c1", "obs_value": 5.30}
{"given_smiles": "O=C(O)c1ccc(-c2cc(-c3ccncc3)c(-c3ccccc3)[nH]2)cc1", "obs_value": 7.85}

###

The next entries give measured IC50 for RAF proto-oncogene serine/threonine-protein kinase (Homo sapiens).

{"compound": "C[S+]([O-])c1ccc(-c2cc(-c3ccncc3)c(-c3ccc(F)cc3)[nH]2)cc1 (configuration not stated)", "IC50 [nM]": 470}
{"compound": "CS(=O)(=O)c1ccc(-c2cc(-c3ccncc3)c(-c3ccc(F)cc3)[nH]2)cc1", "IC50 [nM]": 500}

###

- experiment: C max was determined at 10 mg/kg po dose in rats
- Assay type: ADME, organism-based
- Design: dose 10 mg/kg, route oral
- condition_summary: rat, in vivo

{"compound": "C[S+]([O-])c1ccc(-c2cc(-c3ccncc3)c(-c3ccc(F)cc3)[nH]2)cc1 (stereo unspecified)", "Cmax, µM": 5.71}

###

- measured_target: Mitogen-activated protein kinase 14 (Rattus norvegicus, UniProt P70618)
- Sequence (P70618 whole entry): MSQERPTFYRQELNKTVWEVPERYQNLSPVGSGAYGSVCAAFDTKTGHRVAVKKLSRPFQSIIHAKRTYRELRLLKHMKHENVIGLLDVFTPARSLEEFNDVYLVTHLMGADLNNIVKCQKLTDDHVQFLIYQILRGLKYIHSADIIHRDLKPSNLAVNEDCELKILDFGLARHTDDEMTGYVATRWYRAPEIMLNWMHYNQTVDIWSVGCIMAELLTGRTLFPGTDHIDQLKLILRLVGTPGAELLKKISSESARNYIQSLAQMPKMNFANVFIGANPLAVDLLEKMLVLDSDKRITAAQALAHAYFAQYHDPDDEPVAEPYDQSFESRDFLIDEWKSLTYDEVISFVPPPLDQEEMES
- experiment: Inhibitory potency evaluated against rat p38 kinase
measured_quantity: log10 IC50 (log10 of the value in µM)

{"given_smiles": "CS(=O)(=O)c1ccc(-c2cc(-c3ccncc3)c(-c3ccc(F)cc3)[nH]2)cc1", "log10 IC50": -2.01}
{"given_smiles": "Fc1ccc(-c2[nH]c(-c3ccc(Cl)cc3)cc2-c2ccncc2)cc1", "log10 IC50": -0.70}
{"given_smiles": "N#Cc1ccc(-c2[nH]c(-c3ccccc3)cc2-c2ccncc2)cc1", "log10 IC50": -0.35}
{"given_smiles": "Clc1ccc(-c2cc(-c3ccncc3)c(-c3ccccc3)[nH]2)cc1", "log10 IC50": -0.29}
{"given_smiles": "c1ccc(-c2cc(-c3ccncc3)c(-c3cccnc3)[nH]2)cc1", "log10 IC50": -0.62}
{"given_smiles": "Clc1cccc(-c2[nH]c(-c3ccccc3)cc2-c2ccncc2)c1", "log10 IC50": -1.54}
{"given_smiles": "O=C(CCN1CCCCC1)Nc1ccc(-c2cc(-c3ccncc3)c(-c3ccccc3)[nH]2)cc1", "log10 IC50": -0.41}
{"given_smiles": "Fc1ccc(-c2cc(-c3ccncc3)c(-c3ccccc3)[nH]2)cc1", "log10 IC50": -1.77}
{"given_smiles": "Fc1ccccc1-c1cc(-c2ccncc2)c(-c2ccccc2)[nH]1", "log10 IC50": -1.47}
{"given_smiles": "Fc1ccc(-c2[nH]c(-c3ccccc3)cc2-c2ccncn2)cc1", "log10 IC50": -0.15}
{"given_smiles": "Clc1ccccc1-c1[nH]c(-c2ccccc2)cc1-c1ccncc1", "log10 IC50": -0.30}
{"given_smiles": "COc1ccc(OC)c(-c2cc(-c3ccncc3)c(-c3ccc(F)cc3)[nH]2)c1", "log10 IC50": 0.23}
{"given_smiles": "O=C(NCCN1CCCCC1)c1ccc(-c2cc(-c3ccncc3)c(-c3ccccc3)[nH]2)cc1", "log10 IC50": -1.01}
{"given_smiles": "CSc1ccc(-c2cc(-c3ccncc3)c(-c3ccc(F)cc3)[nH]2)cc1", "log10 IC50": -1.36}
{"given_smiles": "O=[N+]([O-])c1cccc(-c2cc(-c3ccncc3)c(-c3ccccc3)[nH]2)c1", "log10 IC50": -1.28}
{"given_smiles": "O=[N+]([O-])c1ccc(-c2cc(-c3ccncc3)c(-c3ccccc3)[nH]2)cc1", "log10 IC50": -2.21}
{"given_smiles": "COc1ccc(-c2cc(-c3ccncc3)c(-c3ccccc3)[nH]2)cc1", "log10 IC50": -0.55}
{"given_smiles": "Fc1ccc(-c2[nH]c(-c3ccccc3)cc2-c2ccncc2)cc1", "log10 IC50": -1.92}
{"given_smiles": "Oc1c(-c2ccncc2)c(-c2ccc(F)cc2)nn1-c1ccc(Cl)cc1", "log10 IC50": -0.30}
